Taken from ChEMBL document CHEMBL4680211.

experiment: Acute toxicity in Kunming mouse assessed as survival at 200 mg/kg, iv measured for 7 days relative to control; type: organism-based; settings: in vivo, time 7 day
assay-readout: survival at 168 h (%)

chemical-structure | assay-readout | output-unit | measured-number
COc1ccc(N(CCN2CCC(N3CCCC3)CC2)S(=O)(=O)c2ccc3c(c2)c2ccccc2n3C)c(OC)n1 | survival at 168 h | % | 0

* * *

tested on: Bel-7402; experiment: Antiproliferative activity against human Bel-7402 cells measured after 48 hrs by SRB assay; assay type: functional, cell-based; conditions: bel-7402

chemical-structure | tested-on | output-unit | IC50
COc1ccc(N(CCOP(=O)(O)O)S(=O)(=O)c2ccc3c(c2)c2ccccc2n3C)c(OC)n1 | Bel-7402 | µM | 1.15
